- Test method notes: Cmax in cynomolgus monkey at 2 mg/kg, po
- Assay type: ADME, organism-based, Macaca fascicularis
- Set-up: route oral, dose 2 mg/kg
- Protocol conditions: in vivo
Endpoint: Cmax

query: Quick one: Cmax of C[C@H]1C[C@H](C(=O)O)CC[C@H]1C(=O)N1CC[C@@]2(S(=O)(=O)c3ccccc3)c3cc(F)c(C(F)(C(F)(F)F)C(F)(F)F)cc3CC[C@@H]12 ?
result: 3.9 µM

* * *

- Target of assay: Nuclear receptor ROR-gamma (Mus musculus, UniProt P51450)
- Sequence (P51450 whole entry): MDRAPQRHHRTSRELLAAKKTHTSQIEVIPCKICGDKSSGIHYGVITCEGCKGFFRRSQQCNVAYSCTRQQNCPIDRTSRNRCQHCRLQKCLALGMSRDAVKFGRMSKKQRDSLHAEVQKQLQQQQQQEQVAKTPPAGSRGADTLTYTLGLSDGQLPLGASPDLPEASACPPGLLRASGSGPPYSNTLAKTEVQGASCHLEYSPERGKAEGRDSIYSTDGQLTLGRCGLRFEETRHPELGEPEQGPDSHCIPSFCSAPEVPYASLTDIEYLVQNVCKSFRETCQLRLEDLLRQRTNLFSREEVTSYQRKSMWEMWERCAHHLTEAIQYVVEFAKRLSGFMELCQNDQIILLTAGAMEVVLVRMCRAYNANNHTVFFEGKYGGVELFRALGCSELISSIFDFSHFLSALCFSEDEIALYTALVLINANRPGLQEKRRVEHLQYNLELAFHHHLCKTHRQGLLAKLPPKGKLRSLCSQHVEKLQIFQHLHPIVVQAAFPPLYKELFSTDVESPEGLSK
- Test method notes: Inverse agonist activity at RORgammat in mouse Th17 cells
Endpoint: EC50 (nM)
Express the result in nM but write the number alone.

query: Would you mind telling me what EC50 value was observed for C[C@H]1C[C@H](C(=O)O)CC[C@H]1C(=O)N1CC[C@@]2(S(=O)(=O)c3ccccc3)c3cc(F)c(C(F)(C(F)(F)F)C(F)(F)F)cc3CC[C@@H]12 ?
result: 2

* * *

- Test method notes: Clearance in rat at 2 mg/kg, iv
- Format: ADME, organism-based
- Protocol conditions: in vivo
Endpoint: clearance (mL/min/kg)
Please reply with the bare figure in mL/min/kg and do not write the unit itself.

query: Could you share which clearance value was measured for C[C@H]1C[C@H](C(=O)O)CC[C@H]1C(=O)N1CC[C@@]2(S(=O)(=O)c3ccccc3)c3cc(F)c(C(F)(C(F)(F)F)C(F)(F)F)cc3CC[C@@H]12 ?
result: 2.6

* * *

- Test method notes: Metabolic stability in cynomolgous monkey liver microsomes assessed as half life
- Type: ADME, Macaca fascicularis, Microsome
- Protocol conditions: cynomolgus monkey
Endpoint: half-life

query: Reported half-life, molecule C[C@H]1C[C@H](C(=O)O)CC[C@H]1C(=O)N1CC[C@@]2(S(=O)(=O)c3ccccc3)c3cc(F)c(C(F)(C(F)(F)F)C(F)(F)F)cc3CC[C@@H]12 : ____
result: > 2 h

* * *

- Test method notes: Total AUC in cynomolgus monkey at 2 mg/kg, po
- Assay type: ADME, organism-based, Macaca fascicularis
- Parameters: route oral, time AUCmax, dose 2 mg/kg
- Protocol conditions: in vivo
Endpoint: AUC
Give the figure together with its unit, number first.

query: // AUC lookup, key: C[C@H]1C[C@H](C(=O)O)CC[C@H]1C(=O)N1CC[C@@]2(S(=O)(=O)c3ccccc3)c3cc(F)c(C(F)(C(F)(F)F)C(F)(F)F)cc3CC[C@@H]12
result: 55 µM·h

* * *

- Test method notes: Oral bioavailability in dog at 2 mg/kg
- Format: ADME, organism-based, Canis lupus familiaris
- Protocol conditions: in vivo
Endpoint: bioavailability
Answer with the value and then the unit.

query: For the molecule shown here, C[C@H]1C[C@H](C(=O)O)CC[C@H]1C(=O)N1CC[C@@]2(S(=O)(=O)c3ccccc3)c3cc(F)c(C(F)(C(F)(F)F)C(F)(F)F)cc3CC[C@@H]12 , give the reported bioavailability.
result: 90%

* * *

- Test method notes: Clearance in dog at 1 mg/kg, iv
- Format: ADME, organism-based, Canis lupus familiaris
- Protocol conditions: in vivo
Endpoint: clearance (mL/min/kg)
Dear colleague, please return just the value in mL/min/kg, with no unit written.

query: Requested field: clearance. Item: C[C@H]1C[C@H](C(=O)O)CC[C@H]1C(=O)N1CC[C@@]2(S(=O)(=O)c3ccccc3)c3cc(F)c(C(F)(C(F)(F)F)C(F)(F)F)cc3CC[C@@H]12
result: 0.3
